// T/C lookup, one value per entry
- Tested on: P388 leukemia ip, CD2F1 mice, survival T/C
- protocol-summary: NCI In Vivo Anticancer Drug Screen. Data for tumor model P388 Leukemia (intraperitoneal) in CD2F1 (CDF1) mice
- condition-info: endpoint: median survival time; dose: 25.0 mg/kg/injection; schedule: Q04DX002 (ip); vehicle: saline with Tween-80; higher = longer survival
Inconclusive results and toxic doses are left out.

# count of solved cases: 4
compound: CC(=O)Cc1nc2ccccc2s1
measurement-target: P388 leukemia ip, CD2F1 mice, survival T/C
T/C: 104 % of control
//
compound: C=CCc1ccccc1C1=[N+](C)C(C)(C)CO1
measurement-target: P388 leukemia ip, CD2F1 mice, survival T/C
T/C: 100 % of control
//
compound: O=C(/C=C/c1ccccc1)O[C@@H]1CC2CC1C[C@H]2c1cnc[nH]1 (stereo not given in full)
measurement-target: P388 leukemia ip, CD2F1 mice, survival T/C
T/C: 100 % of control
//
compound: Cc1ccc2[nH]c(=O)oc2c1
measurement-target: P388 leukemia ip, CD2F1 mice, survival T/C
T/C: 90 % of control

Q. Reported T/C for Fc1ccc(NP(=S)(Nc2ccc(F)cc2F)Nc2ccc(F)cc2F)c(F)c1 : what is it?
A. 101 % of control

Q. Reported T/C for CSC1SC(C#N)=C(N)C1[n+]1ccccc1 (stereo not given) : what is it?
A. 105 % of control

Q. Reported T/C for O=C1C(C(=NCCCN2CCOCC2)c2ccccc2)=C(O)c2ccccc21 : what is it?
A. 102 % of control

Q. Reported T/C for CCOC(=O)C(CC)c1ccncc1C (stereo not given) : what is it?
A. 106 % of control

Q. Reported T/C for N#CC1CC2(CCC1=O)c1ccccc1-c1ccccc12 (stereo not given) : what is it?
A. 92 % of control

Q. Reported T/C for COc1ccc2c(ccc3c(=O)c4c([nH]c32)CCC4)n1 : what is it?
A. 114 % of control

###

// T/C lookup, one value per entry
- Tested on: P388 leukemia ip, CD2F1 mice, survival T/C
- protocol-summary: NCI In Vivo Anticancer Drug Screen. Data for tumor model P388 Leukemia (intraperitoneal) in CD2F1 (CDF1) mice
- condition-info: endpoint: median survival time; dose: 240.0 mg/kg/injection; schedule: Q01DX005 (ip); vehicle: Klucel (hydroxypropylcellulose) (HPC); higher = longer survival
Toxic doses and inconclusive results are not listed.

compound: CCN(CC)C(=O)c1cncc(C(N)=O)c1
result: 101 % of control
//
compound: C1C2CC3C1C1OC3C21
result: 100 % of control
//
compound: Nc1nc(Cl)nc(Nc2ccc(-c3cc4ccc(-c5ncc[nH]5)cc4[nH]3)cc2)n1
result: 87 % of control
//
compound: O=c1[nH]c2cc(Cl)ccc2nc1/C=C(\O)c1ccccc1
result: 92 % of control

Q. Recall the recorded T/C for O=C1CC(O)C2C(=O)c3c(c(Cl)c4ccccc4c3O)C(=O)C2C1 (stereo unspecified) with P388 leukemia ip, CD2F1 mice, survival T/C and state it.
A. 93 % of control

Q. Recall the recorded T/C for CC(=O)OC1CSc2ccccc2N(C(C)=O)C1 (stereo unspecified) with P388 leukemia ip, CD2F1 mice, survival T/C and state it.
A. 107 % of control

###

- Tested on: P388 leukemia ip, CD2F1 mice, survival T/C
- protocol-summary: NCI In Vivo Anticancer Drug Screen. Data for tumor model P388 Leukemia (intraperitoneal) in CD2F1 (CDF1) mice
- condition-info: endpoint: median survival time; dose: 200.0 mg/kg/injection; schedule: Q01DX001 (ip); vehicle: saline with Tween-80; higher = longer survival
Toxic doses and inconclusive results are not listed.
// T/C lookup, one value per entry

Q. Recall the recorded T/C for CCOC(=O)Nc1cc(NCC(=O)c2ccc(Cl)cc2)c([N+](=O)[O-])c(N)n1 with P388 leukemia ip, CD2F1 mice, survival T/C and state it.
A. 88 % of control

Q. Recall the recorded T/C for Cc1ccc(-c2nc3n(c2/C=N/NC(N)=S)CCS3)cc1 with P388 leukemia ip, CD2F1 mice, survival T/C and state it.
A. 103 % of control

Q. Recall the recorded T/C for c1ccc2c(-c3nc4ccccc4c4ccccc34)nccc2c1 with P388 leukemia ip, CD2F1 mice, survival T/C and state it.
A. 92 % of control

Q. Recall the recorded T/C for c1ccc2c3c(ccc2c1)OCCOCCOCCOc1ccc2ccccc2c1-3 with P388 leukemia ip, CD2F1 mice, survival T/C and state it.
A. 92 % of control

###

// T/C lookup, one value per entry
- Test system: P388 leukemia ip, CD2F1 mice, survival T/C
- protocol-summary: NCI In Vivo Anticancer Drug Screen. Data for tumor model P388 Leukemia (intraperitoneal) in CD2F1 (CDF1) mice
- condition-info: endpoint: median survival time; dose: 25.0 mg/kg/injection; schedule: Q01DX001 (ip); vehicle: Klucel (hydroxypropylcellulose) (HPC); higher = longer survival
Inconclusive results and toxic doses are left out.

compound: COc1ccc2oc(N(C)c3ccccc3)c(C3OC4OC(C)(C)OC4C3OC)c(=O)c2c1 (stereo not given)
result: 97 % of control
--
compound: OC1(c2ccccc2)C(c2ccccc2)=C(c2ccccc2)C(c2ccc(CCc3ccc(C4=C(c5ccccc5)C(O)(c5ccccc5)C(c5ccccc5)=C4c4ccccc4)cc3)cc2)=C1c1ccccc1 (stereo not given)
result: 90 % of control
--
compound: CC12CSC(C)(SC1)SC2
result: 99 % of control
--
compound: O=C(CBr)c1cc2c(cc1Br)OCO2
result: 104 % of control

Now for another entry.
Q. Reported T/C for COC(=O)[C@@H]1[C@@H]2O[C@@H]2[C@H]2O[C@H]2[C@H]1C(=O)O : what is it?
A. 100 % of control

###

- Tested on: P388 leukemia ip, CD2F1 mice, survival T/C
- protocol-summary: NCI In Vivo Anticancer Drug Screen. Data for tumor model P388 Leukemia (intraperitoneal) in CD2F1 (CDF1) mice
- condition-info: endpoint: median survival time; dose: 7.5 mg/kg/injection; schedule: Q01DX005 (ip); vehicle: saline with Tween-80; higher = longer survival
Toxic doses and inconclusive results are not listed.
measurement-label: T/C

molecule: COC(=O)C1=C(C(=O)OC)C2OC1c1cc3ccccc3cc12
measurement-target: P388 leukemia ip, CD2F1 mice, survival T/C
result: 113 % of control

Now for another entry.
Q. Reported T/C for O=C(CSc1nnc(CSc2ccc(Cl)cc2)n1-c1ccccc1)NC(=O)Nc1ccccc1 : what is it?
A. 94 % of control

###

- System: P388 leukemia ip, CD2F1 mice, survival T/C
- protocol-summary: NCI In Vivo Anticancer Drug Screen. Data for tumor model P388 Leukemia (intraperitoneal) in CD2F1 (CDF1) mice
- condition-info: endpoint: median survival time; dose: 25.0 mg/kg/injection; schedule: Q01DX005 (ip); vehicle: saline; higher = longer survival
Toxic doses and inconclusive results are not listed.
// T/C lookup, one value per entry

molecule: C#CCOCCCC(=C)C
measurement-label: T/C
result: 100 % of control
//
molecule: O=[C-]c1ccccc1[C-]=O.[I][Ni+2][I]
measurement-label: T/C
result: 110 % of control
//
molecule: N#CC(C#N)=CC(C#N)C#N
measurement-label: T/C
result: 101 % of control

Q. Reported T/C for CC1=CN2C3=NCCN3C3=[N+](C)CCN3C2C=C1 (configuration not stated) : what is it?
A. 101 % of control

Q. Reported T/C for CCC(CC)NCCNc1cc(OC)cc2cccnc12 : what is it?
A. 108 % of control

Q. Reported T/C for O=C1C=CC(=Nc2cc(Cl)c(O)c(Cl)c2)C=C1Cl : what is it?
A. 100 % of control

Q. Reported T/C for CC(ON)C(=O)O (configuration not stated) : what is it?
A. 102 % of control

###

// T/C lookup, one value per entry
- System: P388 leukemia ip, CD2F1 mice, survival T/C
- protocol-summary: NCI In Vivo Anticancer Drug Screen. Data for tumor model P388 Leukemia (intraperitoneal) in CD2F1 (CDF1) mice
- condition-info: endpoint: median survival time; dose: 120.0 mg/kg/injection; schedule: Q01DX005 (ip); vehicle: Klucel (hydroxypropylcellulose) (HPC); higher = longer survival
Toxic doses and inconclusive results are not listed.

# count of solved cases: 2
compound: COc1ccc(-c2cscc2N)cc1
result: 118 % of control

compound: CC1(C)OC(C)(C)C(=N\O)/C1=N/N
result: 102 % of control

Q. Reported T/C for O=c1[nH]cc(NS(=O)(=O)c2ccc([N+](=O)[O-])cc2)c(=O)[nH]1 : what is it?
A. 103 % of control

Q. Reported T/C for CC1=CC(=C2C(=O)c3ccccc3C2=O)C=C(C)N1CCNCCO : what is it?
A. 90 % of control

Q. Reported T/C for CC1(C)N=NC([Si](C)(C)C)=C1C(=O)c1ccccc1 : what is it?
A. 98 % of control

Q. Reported T/C for CCOC(=O)c1n[nH]nc1Nc1cncc(Nc2n[nH]nc2C(=O)OCC)n1 : what is it?
A. 97 % of control

Q. Reported T/C for OCC1OC(N(O)c2ccc(Oc3c(Cl)cc(Cl)cc3Cl)cc2)C(O)C(O)C1O (stereo unspecified) : what is it?
A. 100 % of control

Q. Reported T/C for C1=Cc2cc(CN3CCOCC3)ccc2Nc2ccccc21 : what is it?
A. 89 % of control

Q. Reported T/C for COc1cccc(N2CC3CC4C=CC3(C2)O4)c1 (stereo unspecified) : what is it?
A. 100 % of control

Q. Reported T/C for O=C(CCCC(=O)Nc1ccc2[nH]c3ccccc3c(=O)c2c1)Nc1ccc2[nH]c3ccccc3c(=O)c2c1 : what is it?
A. 94 % of control

Q. Reported T/C for Nc1ccnc(F)n1 : what is it?
A. 106 % of control
